# Measurement Conditions: 298.15 K, Pendant drop shape
Measured surface tension liquid-gas accompanies every entry in the list below.
Report as a plain number; the unit mN/m is understood.

{"Smiles": "Cc1ccc(C)cc1", "Assay Metric": "surface tension liquid-gas", "Units Label": "mN/m", "Readout Value": 27.89}
{"Smiles": "CC(C)=O", "Assay Metric": "surface tension liquid-gas", "Units Label": "mN/m", "Readout Value": 24.01}
{"Smiles": "Cc1cccc(C)c1", "Assay Metric": "surface tension liquid-gas", "Units Label": "mN/m", "Readout Value": 28.36}

-- ask Sample CCC(C)=O — what was its surface tension liquid-gas?
-- reply 24.28

-- ask Try Cc1ccccc1C next.
-- reply 29.35

###

# Measurement Conditions: 298.15 K; 101.33 kPa; Liquid
Listed here are compounds together with their documented mass density.
# unit: kg/m3 | format: bare number

-- ask # get_value(readout='mass density', item= CCC(C)=O )
-- reply 799.62

###

As shown below, each of these molecules has a reported mass density value.
# Measurement Conditions: 298.15 K; 101.33 kPa; Liquid
Reply with just the number (in kg/m3).

Use these answered entries as a reference point.
{"Molecule": "Cc1ccc(C)cc1 [1,4-dimethylbenzene]", "Units Label": "kg/m3", "mass density": 856.85}
{"Molecule": "Cc1ccccc1C [1,2-dimethylbenzene]", "Units Label": "kg/m3", "mass density": 875.92}
{"Molecule": "Cc1cccc(C)c1 [1,3-dimethylbenzene]", "Units Label": "kg/m3", "mass density": 859.78}

Turning now to a further record.
-- ask Which mass density is reported for this molecule? CC(C)=O [acetone]
-- reply 784.39

Attribution: the NIST ThermoML archive (doi:10.1021/je0341763)
